Cited source for all entries: patent US20190248902A1

Form field: Expression Normalization to mAb 65C12 (one value per entry).
EXPERIMENTAL SYSTEM: T1, human ASGR-1 (wild type) (human, UniProt P07306 1-291)
T1 construct: also called wt ASGR1; huASGR-1
T1 sequence: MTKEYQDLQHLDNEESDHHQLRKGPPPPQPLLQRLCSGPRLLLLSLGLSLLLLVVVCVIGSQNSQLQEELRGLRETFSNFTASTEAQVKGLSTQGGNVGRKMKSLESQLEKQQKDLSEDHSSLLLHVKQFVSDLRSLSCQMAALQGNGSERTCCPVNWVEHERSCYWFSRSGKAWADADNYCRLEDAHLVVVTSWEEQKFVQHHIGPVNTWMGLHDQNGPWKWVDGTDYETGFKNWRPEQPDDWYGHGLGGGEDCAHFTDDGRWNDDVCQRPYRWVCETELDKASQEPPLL
TEST METHOD NOTES: FACS ratio: 65C12 geomean / this mAb geomean

>  <BINDER>
7G4 (antibody, V domains shown, mAb) VH: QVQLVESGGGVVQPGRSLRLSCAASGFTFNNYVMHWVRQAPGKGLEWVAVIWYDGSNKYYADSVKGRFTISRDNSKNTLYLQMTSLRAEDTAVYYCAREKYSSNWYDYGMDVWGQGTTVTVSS VL: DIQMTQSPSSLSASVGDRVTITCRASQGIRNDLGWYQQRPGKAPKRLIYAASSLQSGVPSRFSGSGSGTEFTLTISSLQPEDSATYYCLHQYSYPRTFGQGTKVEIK

>  <Expression Normalization to mAb 65C12>
1.16

$$$$
>  <BINDER>
45B4 (antibody, V domains shown, mAb) VH: QVQLVESGGGVVQPGRSLRLSCAASGFTFSDCVMHWVRQAPGKGLEWVAVIWYDGSNKYYADSVKGRFTISRDNSKNTLYLQMNSLRAEDTAVYYCARERYSSGLYDYGMDVWGQGTTVTVSS VL: DIQMTQSPSSLSASVGDRVTFTCRASQGIRDDLGWYQQKPGKAPKRLIYAASSLQSGVPSRFSGSGSGTEFTLTISSLQPEDFATYYCLQHYSYPRTFGQGTKVEIK

>  <Expression Normalization to mAb 65C12>
1.85

$$$$
>  <BINDER>
72F5 (antibody, V domains shown, mAb) VH: EVQLLESGGGLVQPGGSLRLSCAASGFTFSSYAMIWVRQAPGKGLEWVSTISGSGGYTYSADSVKGRFTISRDNSKNTLYLQMNSLRAEDTAVYYCARRIAVTGTEWYDPWGQGTLVTVSS VL: DIQMTQSPSSLSASVGDRVIIPCRASQNISSYLNWYQQKPGKAPKLLIYAASSLQSGVPSRFSGSGSGTDFTLTISSLQPEDFATYSCQQTYSTPTFGQGTRLDIN

>  <Expression Normalization to mAb 65C12>
2

$$$$
